# Measurement Notes: Inhibition of yeast alpha-glucosidase using p-nitrophenyl-alpha-d-glucopyranoside as substrate preincubated for 15 mins followed by substrate addition measured after 30 mins
# Design: species or system Saccharomyces cerevisiae
Task for the reader: assign each of the following molecules its reported pIC50.
Note: pIC50 values are expressed as the negative base-10 logarithm of concentration in M.

-- ask May I ask what pIC50 has been recorded for C[C@H]1O[C@H](O[C@H]2[C@H](O)[C@@H](O)[C@@H](O[C@H]3[C@H](O)[C@@H](O)C(O)O[C@@H]3CO)O[C@@H]2CO)[C@H](O)[C@@H](O)[C@@H]1N[C@H]1C=C(CO)[C@@H](O)[C@H](O)[C@H]1O (some centres undefined) [ACARBOSE] ?
-- reply 3.03

-- ask May I ask what pIC50 has been recorded for Cc1n[nH]c2c1C(c1ccc([N+](=O)[O-])cc1)C(C#N)=C(N)O2 (centres undefined) ?
-- reply 4.27

-- ask May I ask what pIC50 has been recorded for c1ccc2c(c1)c1ccccc1n2Cc1cn(Cc2ccc(-c3ccc(Cn4cc(Cn5c6ccccc6c6ccccc65)nn4)cc3)cc2)nn1 ?
-- reply 4.14

###

# Experimental Target: Alpha glucosidase (Homo sapiens, UniProt O43451+P10253+P14410+Q2M2H8)
# Measurement Notes: Inhibition of alpha-glucosidase (unknown origin)
# Assay type: protein assay
Assay Metric: IC50

-- ask May I ask what IC50 has been recorded for O=C(C[C@@H](c1cccs1)c1c[nH]c2ccccc12)c1ccccc1 ?
-- reply 4.3 to 43 µM

-- ask May I ask what IC50 has been recorded for Cn1cc(-c2nnc(-c3ccc(C(c4c[nH]c5ccc(Br)cc45)c4c[nH]c5ccc(Br)cc45)cc3)o2)c2ccccc21 ?
-- reply 20 to 292 µM

-- ask May I ask what IC50 has been recorded for CCOc1ccccc1NC(=O)Cn1cc(Cn2c(-c3ccccc3F)nc(-c3ccccc3)c2-c2ccccc2)nn1 ?
-- reply 15 to 48 µM

-- ask May I ask what IC50 has been recorded for COC(=O)c1ccc(-c2nc(-c3ccccc3)c(-c3ccccc3)n2Cc2cn(CC(=O)Nc3cc(Cl)ccc3Cl)nn2)cc1 ?
-- reply 15 to 48 µM

###

Task for the reader: assign each of the following compounds its reported IC50.
# Experimental Target: Alpha glucosidase (Homo sapiens, UniProt O43451+P10253+P14410+Q2M2H8)
# Measurement Notes: Inhibition of alpha-glucosidase (unknown origin)
# Format: protein assay

-- ask May I ask what IC50 has been recorded for O=C(C[C@@H](c1cccc(Br)c1)c1c[nH]c2ccccc12)c1ccccc1 ?
-- reply 4.3 to 43 µM

-- ask May I ask what IC50 has been recorded for COC(=O)CC(C)=O ?
-- reply 19 to 25 µM

-- ask May I ask what IC50 has been recorded for Cc1ccc(NC(=O)Cn2cc(Cn3c(-c4cccc(F)c4)nc(-c4ccccc4)c3-c3ccccc3)nn2)c(C)c1 ?
-- reply 15 to 48 µM

-- ask May I ask what IC50 has been recorded for COc1ccc([C@H](CC(=O)c2ccc3ccccc3c2)c2c[nH]c3ccccc23)cc1 ?
-- reply 4.3 to 43 µM

-- ask May I ask what IC50 has been recorded for O=C(C[C@@H](c1cccc([N+](=O)[O-])c1)c1c[nH]c2ccccc12)c1ccccc1 ?
-- reply 4.3 to 43 µM

-- ask May I ask what IC50 has been recorded for c1ccc2c(-c3nnc(-c4ccc(C(c5c[nH]c6ccccc56)c5c[nH]c6ccccc56)cc4)o3)c[nH]c2c1 ?
-- reply 20 to 292 µM

-- ask May I ask what IC50 has been recorded for CCOc1ccc(NC(=O)Cn2cc(Cn3c(-c4cccc(Cl)c4)nc(-c4ccccc4)c3-c3ccccc3)nn2)cc1 ?
-- reply 15 to 48 µM

-- ask May I ask what IC50 has been recorded for CCCN1C(=O)/C(=N\NC(=O)Cc2ccc(Cl)cc2Cl)c2ccccc21 ?
-- reply 2.2 to 83 µM

-- ask May I ask what IC50 has been recorded for Cc1cccc([C@H](CC(=O)c2ccccc2)c2c[nH]c3ccccc23)c1 ?
-- reply 4.3 to 43 µM

-- ask May I ask what IC50 has been recorded for COc1ccc(Cc2nnc(-c3ccc(Cl)cc3)n2Cc2nn(CN3CCN(C)CC3)c(=S)o2)cc1 ?
-- reply 4.3 µM

-- ask May I ask what IC50 has been recorded for Cc1ccc(NC(=O)Cn2cc(Cn3c(-c4cccc(Cl)c4)nc(-c4ccccc4)c3-c3ccccc3)nn2)c(C)c1 ?
-- reply 15 to 48 µM

-- ask May I ask what IC50 has been recorded for O=C(C[C@@H](c1ccc(Cl)cc1)c1c[nH]c2ccccc12)c1ccc2ccccc2c1 ?
-- reply 4.3 to 43 µM

-- ask May I ask what IC50 has been recorded for O=C(Cc1ccc(Cl)cc1Cl)N/N=C1\C(=O)Nc2cc(Br)ccc21 ?
-- reply 2.2 µM

-- ask May I ask what IC50 has been recorded for COc1ccc(NC(=O)Cn2cc(Cn3c(-c4cccs4)nc(-c4ccccc4)c3-c3ccccc3)nn2)cc1 ?
-- reply 15 to 48 µM

-- ask May I ask what IC50 has been recorded for O=C(Cn1cc(Cn2c(-c3ccc(Br)cc3)nc(-c3ccccc3)c2-c2ccccc2)nn1)Nc1ccc(F)cc1 ?
-- reply 15 to 48 µM

-- ask May I ask what IC50 has been recorded for Cc1[nH]c2ccccc2c1-c1nnc(-c2ccc(C(c3cn(C)c4ccccc34)c3cn(C)c4ccccc34)cc2)o1 ?
-- reply 20 to 292 µM

-- ask May I ask what IC50 has been recorded for O=C1Nc2cc(Cl)ccc2/C1=C/c1ccc(-c2nnc(-c3cc(O)cc(O)c3)o2)cc1 ?
-- reply 1.2 µM

-- ask May I ask what IC50 has been recorded for COc1ccc(NC(=O)Cn2cc(Cn3c(-c4cccc(Cl)c4)nc(-c4ccccc4)c3-c3ccccc3)nn2)cc1 ?
-- reply 15 to 48 µM

-- ask May I ask what IC50 has been recorded for COc1ccc(-c2nc(-c3ccccc3)c(-c3ccccc3)n2Cc2cn(CC(=O)Nc3ccc(Cl)cc3Cl)nn2)cc1OC ?
-- reply 15 to 48 µM

-- ask May I ask what IC50 has been recorded for Cn1cc(-c2nnc(-c3ccc(C(c4c(-c5ccccc5)[nH]c5ccccc45)c4c(-c5ccccc5)[nH]c5ccccc45)cc3)o2)c2ccccc21 ?
-- reply 20 to 292 µM

-- ask May I ask what IC50 has been recorded for Cn1cc(-c2nnc(-c3ccc(C(c4c[nH]c5ccccc45)c4c[nH]c5ccc(Cl)cc45)cc3)o2)c2ccccc21 (stereo not given) ?
-- reply 2 µM

-- ask May I ask what IC50 has been recorded for O=C(C[C@@H](c1ccc(Cl)cc1)c1c[nH]c2ccccc12)c1ccccc1 ?
-- reply 4.3 to 43 µM

-- ask May I ask what IC50 has been recorded for Cn1cc(-c2nnc(-c3ccc(C(c4c[nH]c5ccc(Cl)cc45)c4c[nH]c5ccc(Cl)cc45)cc3)o2)c2ccccc21 ?
-- reply 20 to 292 µM

-- ask May I ask what IC50 has been recorded for Cn1cc(-c2nnc(-c3ccc(C(c4c[nH]c5ccc(C#N)cc45)c4c[nH]c5ccc(C#N)cc45)cc3)o2)c2ccccc21 ?
-- reply 20 to 292 µM

-- ask May I ask what IC50 has been recorded for c1ccc(-c2[nH]c3ccccc3c2C(c2ccc(-c3nnc(-c4c[nH]c5ccccc45)o3)cc2)c2c(-c3ccccc3)[nH]c3ccccc23)cc1 ?
-- reply 20 to 292 µM

-- ask May I ask what IC50 has been recorded for O=C(Cn1cc(Cn2c(-c3ccc(F)cc3)nc(-c3ccccc3)c2-c2ccccc2)nn1)Nc1ccc(Cl)cc1Cl ?
-- reply 15 to 48 µM

-- ask May I ask what IC50 has been recorded for Cc1[nH]c2ccccc2c1-c1nnc(-c2ccc(C(c3c[nH]c4ccc(Cl)cc34)c3c[nH]c4ccc(Cl)cc34)cc2)o1 ?
-- reply 20 to 292 µM

-- ask May I ask what IC50 has been recorded for Cc1c(C(c2ccc(-c3nnc(-c4c[nH]c5ccccc45)o3)cc2)c2c(C)n(C)c3ccccc23)c2ccccc2n1C ?
-- reply 20 to 292 µM

-- ask May I ask what IC50 has been recorded for CCOc1ccc(NC(=O)Cn2cc(Cn3c(-c4ccc(C(=O)OC)cc4)nc(-c4ccccc4)c3-c3ccccc3)nn2)cc1 ?
-- reply 15 to 48 µM

-- ask May I ask what IC50 has been recorded for Cc1[nH]c2ccccc2c1-c1nnc(-c2ccc(C(c3c(C)n(C)c4ccccc34)c3c(C)n(C)c4ccccc34)cc2)o1 ?
-- reply 20 to 292 µM

-- ask May I ask what IC50 has been recorded for N#Cc1ccc2[nH]cc(C(c3ccc(-c4nnc(-c5c[nH]c6ccccc56)o4)cc3)c3c[nH]c4ccc(C#N)cc34)c2c1 ?
-- reply 20 to 292 µM

-- ask May I ask what IC50 has been recorded for Cc1[nH]c2ccccc2c1-c1nnc(-c2ccc(C(c3c(-c4ccccc4)[nH]c4ccccc34)c3c(-c4ccccc4)[nH]c4ccccc34)cc2)o1 ?
-- reply 20 to 292 µM

-- ask May I ask what IC50 has been recorded for CCOC(=O)CC(=O)OCC ?
-- reply 5 to 16 µM

-- ask May I ask what IC50 has been recorded for O=C(Cc1ccc(Cl)c(Cl)c1)N/N=C1\C(=O)Nc2cc(Br)ccc21 ?
-- reply 2.2 to 83 µM

-- ask May I ask what IC50 has been recorded for O=C(C[C@@H](c1c(Cl)cccc1Cl)c1c[nH]c2ccccc12)c1ccccc1 ?
-- reply 4.3 µM
